Ref: ChEMBL document CHEMBL2331234

- target.or.system: Prostaglandin G/H synthase 1 (Mus musculus)
- Sequence (P22437 whole entry): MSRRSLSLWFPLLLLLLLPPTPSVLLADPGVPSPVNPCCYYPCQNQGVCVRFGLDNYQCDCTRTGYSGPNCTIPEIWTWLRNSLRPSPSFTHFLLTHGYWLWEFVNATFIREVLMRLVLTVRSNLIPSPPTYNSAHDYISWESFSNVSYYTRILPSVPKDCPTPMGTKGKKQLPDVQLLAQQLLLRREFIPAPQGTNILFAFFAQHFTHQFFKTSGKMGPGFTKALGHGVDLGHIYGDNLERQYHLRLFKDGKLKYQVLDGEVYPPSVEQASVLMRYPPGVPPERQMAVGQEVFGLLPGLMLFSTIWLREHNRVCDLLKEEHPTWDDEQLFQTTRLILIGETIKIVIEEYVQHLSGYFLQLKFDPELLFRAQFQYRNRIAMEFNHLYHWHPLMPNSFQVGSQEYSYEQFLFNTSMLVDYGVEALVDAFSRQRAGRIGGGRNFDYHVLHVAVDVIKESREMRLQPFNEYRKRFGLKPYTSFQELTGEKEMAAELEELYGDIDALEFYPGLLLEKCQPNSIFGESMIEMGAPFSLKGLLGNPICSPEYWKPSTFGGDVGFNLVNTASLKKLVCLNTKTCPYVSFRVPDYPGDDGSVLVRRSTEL
- procedure.summary: Inhibition of arachidonic acid-induced COX1 activity in mouse J774 cells assessed as decrease in PGE2 levels incubated for 15 mins prior to arachidonic acid-challenge measured after 30 mins by RIA
pIC50: −log10 of the molar value.
metric.name: pIC50

Cc1c(CCOCCO[N+](=O)[O-])cc(-c2ccc(S(C)(=O)=O)cc2)n1-c1cccc(F)c1 | < 5.00
Cc1c(CCOCCO)cc(-c2ccc(S(C)(=O)=O)cc2)n1-c1ccc(F)cc1 | < 5.00
Cc1c(CCOCCCO[N+](=O)[O-])cc(-c2ccc(S(C)(=O)=O)cc2)n1-c1ccc(F)cc1 | < 5.00
Cc1c(CCOCCCO)cc(-c2ccc(S(C)(=O)=O)cc2)n1-c1ccccc1 | < 5.00
Cc1c(CCOCCO)cc(-c2ccc(S(C)(=O)=O)cc2)n1-c1ccccc1 | < 5.00

Field request: pIC50 | item: `Cc1c(CCOCCO)cc(-c2ccc(S(C)(=O)=O)cc2)n1-c1ccc(F)c(F)c1` < 5.00

Field request: pIC50 | item: `Cc1c(CCOCCCO[N+](=O)[O-])cc(-c2ccc(S(C)(=O)=O)cc2)n1-c1cccc(F)c1` 5.54

Field request: pIC50 | item: `Cc1c(CCOCCCO[N+](=O)[O-])cc(-c2ccc(S(C)(=O)=O)cc2)n1-c1ccccc1` < 5.00

Field request: pIC50 | item: `Cc1c(CCOCCCO)cc(-c2ccc(S(C)(=O)=O)cc2)n1-c1ccc(F)cc1` < 5.00
